# Lookup of reported IC50 keyed by entry
# system: Integrin alpha-IIb/beta-3 (Homo sapiens, UniProt P08514+P05106)
# Sequence (P05106 27-788 limits assumed): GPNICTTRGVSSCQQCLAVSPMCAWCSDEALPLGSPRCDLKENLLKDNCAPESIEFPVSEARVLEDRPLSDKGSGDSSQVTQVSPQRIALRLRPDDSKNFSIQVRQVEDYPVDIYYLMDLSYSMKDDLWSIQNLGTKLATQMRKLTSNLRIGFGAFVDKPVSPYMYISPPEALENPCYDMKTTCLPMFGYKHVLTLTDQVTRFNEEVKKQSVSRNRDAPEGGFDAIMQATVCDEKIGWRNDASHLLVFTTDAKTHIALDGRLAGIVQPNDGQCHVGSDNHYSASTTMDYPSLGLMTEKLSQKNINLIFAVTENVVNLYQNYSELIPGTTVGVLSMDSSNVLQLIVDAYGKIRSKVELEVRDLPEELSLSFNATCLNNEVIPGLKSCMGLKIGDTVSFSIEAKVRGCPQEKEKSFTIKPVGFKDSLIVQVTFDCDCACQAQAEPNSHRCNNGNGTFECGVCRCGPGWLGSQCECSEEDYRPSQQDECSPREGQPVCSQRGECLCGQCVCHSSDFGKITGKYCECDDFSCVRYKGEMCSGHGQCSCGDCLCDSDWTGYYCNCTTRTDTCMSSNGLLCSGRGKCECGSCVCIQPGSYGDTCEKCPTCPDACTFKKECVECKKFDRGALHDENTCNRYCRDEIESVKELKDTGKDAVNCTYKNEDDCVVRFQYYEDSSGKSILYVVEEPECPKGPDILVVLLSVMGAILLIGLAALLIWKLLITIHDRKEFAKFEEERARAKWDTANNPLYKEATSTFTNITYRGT
# Sequence (P08514 32-887 limits assumed): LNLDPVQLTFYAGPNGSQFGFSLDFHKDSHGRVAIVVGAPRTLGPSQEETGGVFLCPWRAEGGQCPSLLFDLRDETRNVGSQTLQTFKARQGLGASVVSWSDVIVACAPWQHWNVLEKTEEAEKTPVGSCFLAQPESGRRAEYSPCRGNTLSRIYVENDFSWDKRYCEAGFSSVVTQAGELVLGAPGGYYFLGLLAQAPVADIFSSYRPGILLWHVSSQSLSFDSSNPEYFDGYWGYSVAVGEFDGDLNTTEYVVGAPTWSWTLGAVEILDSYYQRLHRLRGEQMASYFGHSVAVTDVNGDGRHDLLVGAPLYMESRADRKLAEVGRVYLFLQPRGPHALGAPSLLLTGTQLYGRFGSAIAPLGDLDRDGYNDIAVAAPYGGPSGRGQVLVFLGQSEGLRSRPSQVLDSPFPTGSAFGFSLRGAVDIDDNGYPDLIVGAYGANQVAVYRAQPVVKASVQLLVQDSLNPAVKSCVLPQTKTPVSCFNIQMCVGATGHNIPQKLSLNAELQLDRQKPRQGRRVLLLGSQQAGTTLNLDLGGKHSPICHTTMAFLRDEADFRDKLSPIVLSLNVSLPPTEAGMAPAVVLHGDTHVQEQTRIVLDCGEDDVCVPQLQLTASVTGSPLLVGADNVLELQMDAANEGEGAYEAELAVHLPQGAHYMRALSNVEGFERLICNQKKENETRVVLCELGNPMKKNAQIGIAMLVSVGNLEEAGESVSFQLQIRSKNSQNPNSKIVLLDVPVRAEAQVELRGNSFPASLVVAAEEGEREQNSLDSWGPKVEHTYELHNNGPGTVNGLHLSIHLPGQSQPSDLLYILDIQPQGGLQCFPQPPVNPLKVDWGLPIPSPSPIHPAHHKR
# Sequence (P08514 891-1039 limits assumed): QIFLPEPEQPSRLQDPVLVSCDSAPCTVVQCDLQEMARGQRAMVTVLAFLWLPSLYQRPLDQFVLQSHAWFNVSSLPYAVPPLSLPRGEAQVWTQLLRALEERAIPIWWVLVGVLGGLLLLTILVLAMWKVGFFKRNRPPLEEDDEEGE
# measurement_notes: Inhibition of ADP-induced platelet aggregation in human platelet-rich plasma
*1 amine or outer side, *2 acyl side, *3 side chain or, on linkers, in order; H or OH if unused. Where a SMILES comes first, the peptide text is derived from it. Bridges are numbered along the chain shown (N, C = ends). [ ]: non-standard residue; d: D form. Cys(O)(CH2CO) = O=C([C@H](C[S+]([O-])CC(=O)[*:3])N[*:1])[*:2]
Express it in nM; write the number only.

{"molecule": "N=C(N)NCCC[C@@H]1NC(=O)[C@H](CCCN)NC(=O)CSC[C@@H](C(=O)O)NC(=O)[C@H](CC(=O)O)NC(=O)CNC1=O", "IC50 / nM": 250}
{"molecule": "N=C(N)NCCC[C@@H]1NC(=O)[C@@H]2CCCN2C(=O)CSC[C@@H](C(=O)O)NC(=O)[C@H](CC(=O)O)NC(=O)CNC1=O ({CH2CO}-PRGDC-OH; thioether N-5)", "IC50 / nM": 430}
{"molecule": "N=C(N)NCCC[C@@H]1NC(=O)[C@@H](Cc2ccccc2)NC(=O)C[S+]([O-])C[C@@H](C(=O)O)NC(=O)[C@H](CC(=O)O)NC(=O)CNC1=O (stereo partly specified)", "IC50 / nM": 440}
{"molecule": "N=C(N)NCCC[C@@H]1NC(=O)CNC(=O)CS(=O)(=O)C[C@@H](C(=O)O)NC(=O)[C@H](CC(=O)O)NC(=O)CNC1=O", "IC50 / nM": 7700}
{"molecule": "N=C(N)NCCC[C@@H]1NC(=O)[C@H](CCC(=O)O)NC(=O)CSC[C@@H](C(=O)O)NC(=O)[C@H](CC(=O)O)NC(=O)CNC1=O", "IC50 / nM": 4600}

Next:
Ask | # query: IC50 of entry N=C(N)NCCC[C@@H]1NC(=O)[C@H](CO)NC(=O)C[S+]([O-])C[C@@H](C(=O)O)NC(=O)[C@H](CC(=O)O)NC(=O)CNC1=O (stereo partly specified) (SRGD[Cys(O)(CH2CO)]-OH; lactam N-5)
Reply | 490

---

# Lookup of reported pIC50 keyed by entry
# system: Integrin alpha-IIb/beta-3 (Homo sapiens, UniProt P08514+P05106)
# measurement_notes: Inhibition of ADP-induced platelet aggregation in human platelet-rich plasma
*1 amine or outer side, *2 acyl side, *3 side chain or, on linkers, in order; H or OH if unused. Where a SMILES comes first, the peptide text is derived from it. Bridges are numbered along the chain shown (N, C = ends). [ ]: non-standard residue; d: D form. Cys(O)(CH2CO) = O=C([C@H](C[S+]([O-])CC(=O)[*:3])N[*:1])[*:2]
pIC50 (log units): -log10 of the concentration in mol/L.

As a guide, the following entries are already answered.
{"compound": "CC(C)[C@@H]1NC(=O)C[S+]([O-])C[C@@H](C(=O)O)NC(=O)[C@H](CC(=O)O)NC(=O)CNC(=O)[C@H](CCCNC(=N)N)NC1=O (some centres not stated) (VRGD[Cys(O)(CH2CO)]-OH; lactam N-5)", "system": "Integrin alpha-IIb/beta-3 (Homo sapiens, UniProt P08514+P05106)", "result": 6.68}
{"compound": "C[C@@H](O)[C@@H]1NC(=O)CSC[C@@H](C(=O)O)NC(=O)[C@H](CC(=O)O)NC(=O)CNC(=O)[C@H](CCCN=C(N)N)NC1=O", "system": "Integrin alpha-IIb/beta-3 (Homo sapiens, UniProt P08514+P05106)", "result": 6.62}
{"compound": "N=C(N)NCCC[C@@H]1NC(=O)[C@@H](Cc2ccc(O)cc2)NC(=O)CSC[C@@H](C(=O)O)NC(=O)[C@H](CC(=O)O)NC(=O)CNC1=O ({CH2CO}-[dY]RGDC-OH; thioether N-5)", "system": "Integrin alpha-IIb/beta-3 (Homo sapiens, UniProt P08514+P05106)", "result": 5.46}
{"compound": "C[C@@H]1NC(=O)CSC[C@@H](C(=O)O)NC(=O)[C@H](CC(=O)O)NC(=O)CNC(=O)[C@H](CCCNC(=N)N)NC1=O ({CH2CO}-ARGDC-OH; thioether N-5)", "system": "Integrin alpha-IIb/beta-3 (Homo sapiens, UniProt P08514+P05106)", "result": 6.23}
{"compound": "N=C(N)NCCC[C@@H]1NC(=O)c2cccc(c2)CSC[C@@H](C(=O)O)NC(=O)[C@H](CC(=O)O)NC(=O)CNC1=O", "system": "Integrin alpha-IIb/beta-3 (Homo sapiens, UniProt P08514+P05106)", "result": 4.51}
{"compound": "CC[C@H](C)[C@@H]1NC(=O)CSC[C@@H](C(=O)O)NC(=O)[C@H](CC(=O)O)NC(=O)CNC(=O)[C@H](CCCN=C(N)N)NC1=O", "system": "Integrin alpha-IIb/beta-3 (Homo sapiens, UniProt P08514+P05106)", "result": 6.57}

Ask | # query: pIC50 of entry C[C@@H](O)[C@@H]1NC(=O)C[S+]([O-])C[C@@H](C(=O)O)NC(=O)[C@H](CC(=O)O)NC(=O)CNC(=O)[C@H](CCCN=C(N)N)NC1=O (some centres not stated)
Reply | 7.00

Ask | Also check N=C(N)NCCC[C@@H]1NC(=O)CNC(=O)[C@@H](Cc2ccccc2)SC[C@@H](C(=O)O)NC(=O)[C@H](CC(=O)O)NC(=O)CNC1=O
Reply | 5.15

Ask | Also check N=C(N)NCCC[C@@H]1NC(=O)[C@@H](Cc2ccc(O)cc2)NC(=O)C[S+]([O-])C[C@@H](C(=O)O)NC(=O)[C@H](CC(=O)O)NC(=O)CNC1=O (some centres not stated)
Reply | 6.92

Ask | Also check N=C(N)NCCC[C@@H]1NC(=O)CNC(=O)C[S+]([O-])C[C@@H](C(=O)O)NC(=O)[C@H](CC(=O)O)NC(=O)CNC1=O (some centres not stated)
Reply | 6.43

Ask | Also check N=C(N)NCCC[C@@H]1NC(=O)[C@@H](Cc2ccc(O)cc2)NC(=O)CS(=O)(=O)C[C@@H](C(=O)O)NC(=O)[C@H](CC(=O)O)NC(=O)CNC1=O
Reply | 6.68

Ask | Also check N=C(N)NCCC[C@@H]1NC(=O)[C@H](CCC(N)=O)NC(=O)CSC[C@@H](C(=O)O)NC(=O)[C@H](CC(=O)O)NC(=O)CNC1=O
Reply | 6.17

# credit: BindingDB's records for doi:10.1021/jm00089a014
